Origin of values: a compilation of properties of binary mixtures (doi:10.1016/j.molliq.2022.119944)

methodNotes: xn = mol fraction of the nth substance listed
measurementParameters: 323.15 K; 101.3 kPa; x1 = 0.7
Reported viscosity is given for each of the following compounds.
Please give a number only; it is taken to be in mPa·s.

Worked cases, viscosity given:
> print(dat)
                                   compound    uom  recordedresult
1  C=C[n+]1ccn(CCCC)c1.NCCCC[C@H](N)C(=O)[O-] + O  mPa·s            42.7
2       C=Cn1cc[n+](CCCC)c1.NCC(=O)[O-] + O  mPa·s             168
3  C=C[n+]1ccn(CCCC)c1.N[C@@H](CO)C(=O)[O-] + O  mPa·s             400

API: the following record is the query input.
-- ask viscosity lookup needed for C=C[n+]1ccn(CCCC)c1.N[C@@H](Cc1c[nH]cn1)C(=O)[O-] + O , thanks.
-- reply 33.63

* * *

Reported electrical conductivity is given for each of the following compounds.
methodNotes: xn = mol fraction of the nth substance listed
measurementParameters: 323.15 K; 101.3 kPa; x1 = 0.7
Please give a number only; it is taken to be in S/m.

> print(dat)
                                   compound  recordedresult
1  C=C[n+]1ccn(CCCC)c1.N[C@@H](Cc1c[nH]cn1)C(=O)[O-] + O            3.83
2  C=C[n+]1ccn(CCCC)c1.NCCCC[C@H](N)C(=O)[O-] + O            3.28
3  C=C[n+]1ccn(CCCC)c1.N[C@@H](CO)C(=O)[O-] + O            3.82

API: the following record is the query input.
-- ask electrical conductivity lookup needed for C=Cn1cc[n+](CCCC)c1.NCC(=O)[O-] + O , thanks.
-- reply 3.25

* * *

methodNotes: xn = mol fraction of the nth substance listed
measurementParameters: 313.15 K; 101.3 kPa; x1 = 0.9
outcomeMeasure: electrical conductivity (S/m)
Please give a number only; it is taken to be in S/m.

Worked cases, electrical conductivity given:
> print(dat)
                                   molecule           outcomemeasure  uom  recordedresult
1       C=Cn1cc[n+](CCCC)c1.NCC(=O)[O-] + O  electrical conductivity  S/m           0.653
2  C=C[n+]1ccn(CCCC)c1.N[C@@H](CO)C(=O)[O-] + O  electrical conductivity  S/m             1.1
3  C=C[n+]1ccn(CCCC)c1.N[C@@H](Cc1c[nH]cn1)C(=O)[O-] + O  electrical conductivity  S/m            0.99

API: the following record is the query input.
-- ask electrical conductivity lookup needed for C=C[n+]1ccn(CCCC)c1.NCCCC[C@H](N)C(=O)[O-] + O , thanks.
-- reply 1.34

* * *

methodNotes: xn = mol fraction of the nth substance listed
measurementParameters: 313.15 K; 101.3 kPa; x1 = 0.7
Reported electrical conductivity is given for each of the following molecules.
Answer with the number, then the unit.

Worked cases, electrical conductivity given:
> print(dat)
                                   molecule  recordedresult
1       C=Cn1cc[n+](CCCC)c1.NCC(=O)[O-] + O        2.31 S/m
2  C=C[n+]1ccn(CCCC)c1.NCCCC[C@H](N)C(=O)[O-] + O        2.54 S/m

-- ask electrical conductivity lookup needed for C=C[n+]1ccn(CCCC)c1.N[C@@H](CO)C(=O)[O-] + O , thanks.
-- reply 3.19 S/m

-- ask electrical conductivity lookup needed for C=C[n+]1ccn(CCCC)c1.N[C@@H](Cc1c[nH]cn1)C(=O)[O-] + O , thanks.
-- reply 3.27 S/m

* * *

methodNotes: xn = mol fraction of the nth substance listed
measurementParameters: 313.15 K; 101.3 kPa; x1 = 0.1
Reported viscosity is given for each of the following compounds.
Please give a number only; it is taken to be in mPa·s.

Worked cases, viscosity given:
> print(dat)
                                   compound  outcomemeasure  recordedresult
1  C=C[n+]1ccn(CCCC)c1.N[C@@H](CO)C(=O)[O-] + O       viscosity            5.94
2  C=C[n+]1ccn(CCCC)c1.N[C@@H](Cc1c[nH]cn1)C(=O)[O-] + O       viscosity            2.08
3  C=C[n+]1ccn(CCCC)c1.NCCCC[C@H](N)C(=O)[O-] + O       viscosity            2.38

-- ask viscosity lookup needed for C=Cn1cc[n+](CCCC)c1.NCC(=O)[O-] + O , thanks.
-- reply 6.73

* * *

methodNotes: xn = mol fraction of the nth substance listed
measurementParameters: 303.15 K; 101.3 kPa; x1 = 0.7
Reported electrical conductivity is given for each of the following compounds.
Please give a number only; it is taken to be in S/m.

Worked cases, electrical conductivity given:
> print(dat)
                                   compound           outcomemeasure  recordedresult
1  C=C[n+]1ccn(CCCC)c1.NCCCC[C@H](N)C(=O)[O-] + O  electrical conductivity            1.91
2       C=Cn1cc[n+](CCCC)c1.NCC(=O)[O-] + O  electrical conductivity            1.58
3  C=C[n+]1ccn(CCCC)c1.N[C@@H](Cc1c[nH]cn1)C(=O)[O-] + O  electrical conductivity            2.67

-- ask electrical conductivity lookup needed for C=C[n+]1ccn(CCCC)c1.N[C@@H](CO)C(=O)[O-] + O , thanks.
-- reply 2.61

* * *

methodNotes: xn = mol fraction of the nth substance listed
measurementParameters: 303.15 K; 101.3 kPa; x1 = 0.7
outcomeMeasure: viscosity (mPa·s)
Please give a number only; it is taken to be in mPa·s.

Worked cases, viscosity given:
> print(dat)
                                   molecule    uom  recordedresult
1  C=C[n+]1ccn(CCCC)c1.NCCCC[C@H](N)C(=O)[O-] + O  mPa·s            74.7
2       C=Cn1cc[n+](CCCC)c1.NCC(=O)[O-] + O  mPa·s             282
3  C=C[n+]1ccn(CCCC)c1.N[C@@H](Cc1c[nH]cn1)C(=O)[O-] + O  mPa·s            59.5

-- ask viscosity lookup needed for C=C[n+]1ccn(CCCC)c1.N[C@@H](CO)C(=O)[O-] + O , thanks.
-- reply 490

* * *

methodNotes: xn = mol fraction of the nth substance listed
measurementParameters: 308.15 K; 101.3 kPa; x1 = 0.3
outcomeMeasure: electrical conductivity

Worked cases, electrical conductivity given:
> print(dat)
                                   compound  recordedresult
1  C=C[n+]1ccn(CCCC)c1.N[C@@H](Cc1c[nH]cn1)C(=O)[O-] + O        3.79 S/m
2  C=C[n+]1ccn(CCCC)c1.NCCCC[C@H](N)C(=O)[O-] + O        2.78 S/m
3       C=Cn1cc[n+](CCCC)c1.NCC(=O)[O-] + O        1.94 S/m

API: the following record is the query input.
-- ask electrical conductivity lookup needed for C=C[n+]1ccn(CCCC)c1.N[C@@H](CO)C(=O)[O-] + O , thanks.
-- reply 3.08 S/m

* * *

Reported viscosity is given for each of the following compounds.
methodNotes: xn = mol fraction of the nth substance listed
measurementParameters: 333.15 K; 101.3 kPa; x1 = 0.7
Please give a number only; it is taken to be in mPa·s.

Worked cases, viscosity given:
> print(dat)
                                   compound  outcomemeasure    uom  recordedresult
1  C=C[n+]1ccn(CCCC)c1.N[C@@H](Cc1c[nH]cn1)C(=O)[O-] + O       viscosity  mPa·s           29.24
2  C=C[n+]1ccn(CCCC)c1.NCCCC[C@H](N)C(=O)[O-] + O       viscosity  mPa·s           36.62

-- ask viscosity lookup needed for C=C[n+]1ccn(CCCC)c1.N[C@@H](CO)C(=O)[O-] + O , thanks.
-- reply 396

-- ask viscosity lookup needed for C=Cn1cc[n+](CCCC)c1.NCC(=O)[O-] + O , thanks.
-- reply 156

* * *

methodNotes: xn = mol fraction of the nth substance listed
measurementParameters: 313.15 K; 101.3 kPa; x1 = 0.9
Reported viscosity is given for each of the following compounds.
Please give a number only; it is taken to be in mPa·s.

> print(dat)
                                   compound  recordedresult
1  C=C[n+]1ccn(CCCC)c1.N[C@@H](CO)C(=O)[O-] + O            1159
2  C=C[n+]1ccn(CCCC)c1.N[C@@H](Cc1c[nH]cn1)C(=O)[O-] + O            1026
3  C=C[n+]1ccn(CCCC)c1.NCCCC[C@H](N)C(=O)[O-] + O            1167

API: the following record is the query input.
-- ask viscosity lookup needed for C=Cn1cc[n+](CCCC)c1.NCC(=O)[O-] + O , thanks.
-- reply 730
